Data origin, for the record: the supplement of paper PMC7595190

# Tested on: MV4-11
# protocol: CellTox Green cytotoxicity fluorescence relative to DMSO vehicle (fold of vehicle RFU); higher = more cell death (loss of membrane integrity), active = 2 or more
# assay_context: 0.1 µM; 24 h
Criterion: CellTox Green cytotoxicity fluorescence meeting or surpassing 1. Met: t. Not met: f.

Solved entries (count: 2):
                           molecular_string  tested_system  category_label
0  CN1CCN(Cc2ccc(Nc3ncc(Cl)c(Nc4ccccc4S(=O)(=O)N(C)C)n3)cc2)CC1         MV4-11               t
1  COC(=O)[C@H](CCSC)NC(=O)c1ccc(NC[C@@H](N)CS)cc1-c1ccccc1         MV4-11               f

Read the next record carefully.
Asked: Hello, I need to know if C=CCc1cccc(/C=N/NC(=O)CN2CCN(Cc3ccccc3)CC2)c1O has measured CellTox Green cytotoxicity fluorescence not below 1. Thanks!
Given back: f

====

# Tested on: Kasumi-1
# protocol: CellTox Green cytotoxicity fluorescence relative to DMSO vehicle (fold of vehicle RFU); higher = more cell death (loss of membrane integrity), active = 2 or more
# assay_context: 0.1 µM; 72 h
# reported CellTox Green cytotoxicity fluorescence; entries follow
Reply with the value as a number alone.

molecule	tested_system	CellTox Green cytotoxicity fluorescence
COc1nc(-c2ccc3c(c2)OCO3)n(-c2ccc(NC(=O)CSc3ccccc3)cc2)n1 [SecinH3]	Kasumi-1	1.01
CC(=O)O/N=C1/C(c2c(O)[nH]c3cc(Br)ccc23)=Nc2ccccc21 [BIO-acetoxime]	Kasumi-1	1.04
C=CCc1cccc(/C=N/NC(=O)CN2CCN(Cc3ccccc3)CC2)c1O	Kasumi-1	0.918
CN[C@@H](C)C(=O)N[C@H](C(=O)N1CCC[C@H]1c1nc(C(=O)c2ccc(F)cc2)cs1)C1CCCCC1	Kasumi-1	1.04
CC1(C)CC[C@]2(NC(=O)C(C)(F)F)CC[C@]3(C)[C@H](C(=O)C=C4[C@@]5(C)C=C(C#N)C(=O)C(C)(C)[C@@H]5CC[C@]43C)[C@@H]2C1 [Omaveloxolone]	Kasumi-1	0.946

Note to self: CellTox Green cytotoxicity fluorescence recorded for CC(=O)N1c2ccc(-c3ccc(C(=O)O)cc3)cc2[C@H](Nc2ccc(Cl)cc2)C[C@@H]1C was 1.49

Note to self: CellTox Green cytotoxicity fluorescence recorded for NS(=O)(=O)C#Cc1ccccc1 [Pifithrin-m] was 0.98

Note to self: CellTox Green cytotoxicity fluorescence recorded for CC(C)c1cc2c(N3CCN(C4=NCC(C)(C)S4)CC3)ncnc2s1 [MI-3 (Menin-MLL Inhibitor)] was 0.966

====

# Test system: CMK
# protocol: CellTox Green cytotoxicity fluorescence relative to DMSO vehicle (fold of vehicle RFU); higher = more cell death (loss of membrane integrity), active = 2 or more
# assay_context: 1 µM; 24 h
Returns: one label drawn from active, inactive

In [3]: df
Out[3]:
                                   compound  category_label
0  N#Cc1ccc(-c2c(-c3ncn[nH]3)sc(N3CCOCC3)c2C#N)c(F)c1        inactive

Asked: Assay outcome for Nc1cccc2c1CN(C1CCC(=O)NC1=O)C2=O (stereo not given) [Lenalidomide] : what was it?
Given back: inactive

Asked: Assay outcome for O=C1C(=O)N(Cc2ccc(Cl)c(Cl)c2)c2ccccc21 : what was it?
Given back: inactive

Asked: Assay outcome for COCC[n+]1c2c(n(Cc3cnccn3)c1C)C(=O)c1ccccc1C2=O [Sepantronium Bromide] : what was it?
Given back: inactive

Asked: Assay outcome for CNC(=O)c1ccc(Nc2ncc(C(F)(F)F)c(NCc3nccnc3N(C)S(C)(=O)=O)n2)cc1 : what was it?
Given back: inactive

Asked: Assay outcome for Cc1c(C(=O)Nc2ccc(Oc3ccnc4[nH]cc(-c5ccccc5)c34)c(F)c2)c(=O)n(-c2ccc(F)cc2)n1C : what was it?
Given back: inactive

Asked: Assay outcome for N#CC(=Cc1ccc(-c2cc(Cl)ccc2Cl)o1)C(=O)Nc1cccc2ncccc12 : what was it?
Given back: inactive

Asked: Assay outcome for COc1cc(C(=O)N2CCC(N3CCN(C)CC3)CC2)ccc1Nc1ncc2c(n1)N(C)c1ccccc1C(=O)N2C : what was it?
Given back: inactive

Asked: Assay outcome for CN[C@@H](C)C(=O)N[C@H](C(=O)N1CCC[C@H]1C(=O)Nc1snnc1-c1ccccc1)C1CCCCC1 : what was it?
Given back: inactive
